biological target: Cannabinoid receptor 1 (Homo sapiens); test: Allosteric modulator activity at hemagglutinin-tagged human CB1 receptor expressed in HEK293 cells assessed as effect on CP55,940-induced inhibition of forskolin-induced cAMP accumulation by kinetic cAMP assay; assay type: functional, cell-based
Active and inactive are the calls of the source. The rule behind the calls is not given here.
The reply should name one outcome from active, inactive

input: # fetch the recorded call for CCc1c(C(=O)NCCc2ccc(F)cc2)[nH]c2ccc(Cl)cc12 here
output: active

input: # fetch the recorded call for CCc1c(C(=O)NCCc2ccc(N3CCCCC3)cc2)[nH]c2ccccc12 here
output: active

input: # fetch the recorded call for CCc1c(C(=O)OCCc2ccc(N3CCCCC3)cc2)[nH]c2ccc(Cl)cc12 here
output: inactive

input: # fetch the recorded call for CCc1c(C(=O)NCCc2ccc(Cl)cc2)[nH]c2ccc(Cl)cc12 here
output: active

input: # fetch the recorded call for O=C(NCCc1ccc(N2CCCCC2)cc1)c1cc2cc(Cl)ccc2[nH]1 here
output: inactive

====

Would you mind telling me the reported pEC50 of each entry?
target: UniProtKB P21554; experiment: Activity at hemagglutinin-tagged human CB1 receptor expressed in HEK293 cells assessed as effect on forskolin-induced cAMP accumulation in presence of CP55,940 by cAMP BRET assay; format: functional, cell-based
# pEC50 = -log10(concentration in molar units)

For this compound ( CCc1c(C(=O)NCCc2ccc(Cl)cc2)[nH]c2ccc(Cl)cc12 ), measured pEC50 is 5.47

For this compound ( CCc1c(C(=O)NCCc2ccc(N(C)C)cc2)[nH]c2ccc(Cl)cc12 ), measured pEC50 is 6.22

For this compound ( CCc1c(C(=O)NCCc2ccc(F)cc2)[nH]c2ccc(Cl)cc12 ), measured pEC50 is 5.30

For this compound ( CCc1c(C(=O)NCCc2ccc([N+](=O)[O-])cc2)[nH]c2ccc(Cl)cc12 ), measured pEC50 is 5.94

For this compound ( CC(O)c1c(C(=O)NCCc2ccc(N3CCCCC3)cc2)[nH]c2ccc(Cl)cc12 (stereo not drawn) ), measured pEC50 is 5.58

For this compound ( CCc1c(C(=O)NCCc2ccc(C)cc2)[nH]c2ccc(Cl)cc12 ), measured pEC50 is 6.10

For this compound ( CCc1c(C(=O)NCCc2ccc(N3CCCCC3)cc2)[nH]c2ccccc12 ), measured pEC50 is 5.40

For this compound ( CCc1c(C(=O)NCCc2ccc(N3CCCCC3)cc2)[nH]c2ccc(Cl)cc12 ), measured pEC50 is 5.65

====

target: Cannabinoid receptor 2 (Homo sapiens); experiment: Allosteric agonist activity at hemagglutinin-tagged human CB2 receptor expressed in HEK293 cells assessed as effect on forskolin-induced cAMP accumulation at 10 uM by kinetic cAMP assay; format: functional, cell-based
Active and inactive are the calls of the source. No cut-off for these calls is given here.
The reply should name one outcome from T (active), F (inactive)

input: # fetch the recorded call for CCc1c(C(=O)NCCc2ccc([N+](=O)[O-])cc2)[nH]c2ccc(Cl)cc12 here
output: F

input: # fetch the recorded call for CC(O)c1c(C(=O)NCCc2ccc(N3CCCCC3)cc2)[nH]c2ccc(Cl)cc12 (stereo not given) here
output: F

input: # fetch the recorded call for CCc1c(C(=O)NCCc2ccc(F)cc2)[nH]c2ccc(Cl)cc12 here
output: F

input: # fetch the recorded call for CCc1c(C(=O)OCCc2ccc(NC)cc2)[nH]c2ccc(Cl)cc12 here
output: F

input: # fetch the recorded call for O=C(NCCc1ccc(N2CCCCC2)cc1)c1cc2cc(Cl)ccc2[nH]1 here
output: F

input: # fetch the recorded call for CCc1c(C(=O)NCCc2ccc(Cl)cc2)[nH]c2ccc(Cl)cc12 here
output: F

input: # fetch the recorded call for CCc1c(C(=O)NCCc2ccc(N)cc2)[nH]c2ccc(Cl)cc12 here
output: T

input: # fetch the recorded call for CCc1c(C(=O)NCCc2ccc(N3CCCCC3)cc2)[nH]c2ccccc12 here
output: T

input: # fetch the recorded call for CCc1c(C(=O)NCCc2ccc(C)cc2)[nH]c2ccc(Cl)cc12 here
output: F

input: # fetch the recorded call for CCc1c(C(=O)OCCc2ccc(N3CCCCC3)cc2)[nH]c2ccc(Cl)cc12 here
output: T

input: # fetch the recorded call for O=C(NCCc1ccc(Cl)cc1)c1cc2cc(Cl)ccc2[nH]1 here
output: F

input: # fetch the recorded call for O=C(NCCc1ccc([N+](=O)[O-])cc1)c1cc2cc(Cl)ccc2[nH]1 here
output: F

input: # fetch the recorded call for CCc1c(C(=O)NCCc2ccc(N3CCCC3)cc2)[nH]c2ccc(Cl)cc12 here
output: F

input: # fetch the recorded call for CCc1c(C(=O)NCCc2ccc(N3CCCCC3)cc2)[nH]c2ccc(Cl)cc12 here
output: F

input: # fetch the recorded call for CCc1c(C(=O)NCCc2ccc(N(C)C)cc2)[nH]c2ccc(Cl)cc12 here
output: F

====

biological target: Cannabinoid receptor 1 (Homo sapiens); test: Activity at hemagglutinin-tagged human CB1 receptor expressed in HEK293 cells assessed as effect on forskolin-induced cAMP accumulation after 5 mins in presence of CP55,940 by cAMP BRET assay; format: functional, cell-based
testReadout: EC50 (µM)
Reply with just the number (in µM).

For this compound ( CCc1c(C(=O)NCCc2ccc(F)cc2)[nH]c2ccc(Cl)cc12 ), measured EC50 is 7.37

For this compound ( CCc1c(C(=O)NCCc2ccc(N3CCCCC3)cc2)[nH]c2ccccc12 ), measured EC50 is 6.84

For this compound ( CCc1c(C(=O)NCCc2ccc(C)cc2)[nH]c2ccc(Cl)cc12 ), measured EC50 is 1.01

For this compound ( CC(O)c1c(C(=O)NCCc2ccc(N3CCCCC3)cc2)[nH]c2ccc(Cl)cc12 (centres undefined) ), measured EC50 is 13.4

====

target: Cannabinoid receptor 2 (Homo sapiens, UniProt P34972); test: Activity at hemagglutinin-tagged human CB2 receptor expressed in HEK293 cells assessed as inhibition of forskolin-induced cAMP accumulation in absence of CP55,940 by cAMP BRET assay
Sequence (P34972 whole entry): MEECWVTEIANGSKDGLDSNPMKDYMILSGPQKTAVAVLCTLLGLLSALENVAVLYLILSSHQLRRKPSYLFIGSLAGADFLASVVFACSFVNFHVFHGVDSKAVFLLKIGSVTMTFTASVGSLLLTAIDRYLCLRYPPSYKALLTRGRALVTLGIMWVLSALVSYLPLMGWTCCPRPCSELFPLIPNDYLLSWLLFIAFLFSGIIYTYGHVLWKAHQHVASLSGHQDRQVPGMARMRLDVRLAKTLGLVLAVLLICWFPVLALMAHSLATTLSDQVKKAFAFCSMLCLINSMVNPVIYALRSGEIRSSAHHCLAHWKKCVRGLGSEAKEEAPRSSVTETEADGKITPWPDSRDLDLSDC
testReadout: EC50 (nM)
Reply with just the number (in nM).

For this molecule ( CCc1c(C(=O)OCCc2ccc(N3CCCCC3)cc2)[nH]c2ccc(Cl)cc12 ), measured EC50 is 130

====

biological target: Cannabinoid receptor 1 (Homo sapiens, UniProt P21554); experiment: Activity at hemagglutinin-tagged human CB1 receptor expressed in HEK293 cells assessed as effect on forskolin-induced cAMP accumulation after 15 mins in presence of CP55,940 by cAMP BRET assay; assay type: functional, cell-based
Sequence (P21554 whole entry): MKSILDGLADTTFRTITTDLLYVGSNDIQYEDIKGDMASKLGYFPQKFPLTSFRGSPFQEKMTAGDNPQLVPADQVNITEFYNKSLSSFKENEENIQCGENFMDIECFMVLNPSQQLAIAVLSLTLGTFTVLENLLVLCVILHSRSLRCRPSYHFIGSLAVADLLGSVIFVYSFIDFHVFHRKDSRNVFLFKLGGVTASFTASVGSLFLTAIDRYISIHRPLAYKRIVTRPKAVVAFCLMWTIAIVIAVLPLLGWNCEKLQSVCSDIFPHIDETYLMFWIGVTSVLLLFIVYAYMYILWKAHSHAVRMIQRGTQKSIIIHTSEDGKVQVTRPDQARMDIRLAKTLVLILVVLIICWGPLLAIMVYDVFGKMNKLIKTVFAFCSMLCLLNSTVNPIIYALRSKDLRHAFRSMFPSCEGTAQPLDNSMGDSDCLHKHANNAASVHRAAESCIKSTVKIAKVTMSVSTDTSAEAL
testReadout: EC50

For this compound ( CCc1c(C(=O)NCCc2ccc([N+](=O)[O-])cc2)[nH]c2ccc(Cl)cc12 ), measured EC50 is 0.44 µM

For this compound ( CCc1c(C(=O)NCCc2ccc(Cl)cc2)[nH]c2ccc(Cl)cc12 ), measured EC50 is 20 µM

For this compound ( CCc1c(C(=O)NCCc2ccc(N3CCCCC3)cc2)[nH]c2ccccc12 ), measured EC50 is 3.55 µM

For this compound ( CCc1c(C(=O)NCCc2ccc(N(C)C)cc2)[nH]c2ccc(Cl)cc12 ), measured EC50 is 0.21 µM

For this compound ( CCc1c(C(=O)NCCc2ccc(F)cc2)[nH]c2ccc(Cl)cc12 ), measured EC50 is 8.96 µM

For this compound ( CCc1c(C(=O)OCCc2ccc(NC)cc2)[nH]c2ccc(Cl)cc12 ), measured EC50 is < 10 µM
